- tgt: Acid ceramidase (Homo sapiens) (UniProt Q13510)
- Sequence (Q13510 22-142 limits assumed): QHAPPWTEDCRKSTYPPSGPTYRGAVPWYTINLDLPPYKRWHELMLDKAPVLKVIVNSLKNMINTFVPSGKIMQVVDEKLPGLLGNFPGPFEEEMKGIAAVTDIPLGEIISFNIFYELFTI
- Sequence (Q13510 143-395 limits assumed): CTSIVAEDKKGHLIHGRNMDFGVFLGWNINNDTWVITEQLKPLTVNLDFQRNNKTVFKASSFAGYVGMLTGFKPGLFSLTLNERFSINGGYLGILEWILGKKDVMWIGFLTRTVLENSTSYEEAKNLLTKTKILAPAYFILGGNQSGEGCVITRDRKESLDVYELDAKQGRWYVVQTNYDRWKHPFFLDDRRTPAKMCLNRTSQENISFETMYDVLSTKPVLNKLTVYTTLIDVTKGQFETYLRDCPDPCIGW
- test-summary: Inhibition of human ASAH1 stably over expressed in human A-375 cell lysate using RBM14C12 fluorogenic substrate measured at 1:1 compound to substrate molar ratio at pH 4.5 by fluorescence spectrophotometry
- Assay type: subcellular
Active and inactive are the calls of the source. The rule behind the calls is not given here.
experimental-readout: inhibition

# count of solved cases: 5
CCCCCCCCCCCC/C=C/[C@@H](O)[C@@H](C)NC(=O)c1ccc(CCCCC)cc1 | inactive
CCCCCCCCCCCC/C=C/[C@@H](O)[C@@H](C)NC(=O)c1ccc(CC)cc1 | inactive
CCCCCCCCCCCC/C=C/[C@@H](O)[C@@H](C)NC(=O)c1ccc(OCCOCCOC)cc1 | inactive
CCCCCCCCCCCC/C=C/[C@@H](O)[C@@H](C)NC(=O)c1ccc(OCCCCC)cc1 | inactive
CCCCCCCCCCCC/C=C/[C@@H](O)[C@@H](C)NC(=O)c1ccccc1 | inactive

Exercise: Fill blank: measured inhibition of the compound CCCCCCCCCCCC/C=C/[C@@H](O)[C@@H](C)NC(=O)c1ccc(OCCCOCOC)cc1 is ____.
Solution: inactive

Exercise: Fill blank: measured inhibition of the compound CCCCCCCCCCCC/C=C/[C@@H](O)[C@@H](C)NC(=O)c1ccc(OCCCCCCCOCOC)cc1 is ____.
Solution: inactive

Exercise: Fill blank: measured inhibition of the compound CCCCCCCCCCCC/C=C/[C@@H](O)[C@@H](C)NC(=O)c1ccc(C(C)(C)C)cc1 is ____.
Solution: inactive

Exercise: Fill blank: measured inhibition of the compound CCCCCCCCCCCC/C=C/[C@@H](O)[C@@H](C)NC(=O)c1ccc(OCCCCCC)cc1 is ____.
Solution: inactive

Taken from ChEMBL document CHEMBL4813974.
